protocol-details: antimalarial activity against Dd2 strain (AID 2302);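 also: 0% = DMSO untreated growth and 100% = chloroquine plus artemisinin killed control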
condition-context: P. falciparum Dd2 in RBCs, LDH growth readout, 72 h; at 2 µM; hits give high values
Measured growth inhibition determines class: bin 1 (below 70%), bin 2 (70% to below 90%), bin 3 (90% or more)

[[record]]
molecule = "O=C(c1ccc(F)c2ccccc12)N1CCc2cc3nccc(N4CCN5CCC[C@H]5C4)c3cc21"
category_label = "bin 1"

[[record]]
molecule = "CCC[C@@H]([C@@H](CC1CCCCC1)C(=O)NC(C(=O)Nc1nccs1)C(CC)c1ccccc1)N(O)C=O (stereo not given in full)"
category_label = "bin 1"

[[record]]
molecule = "CCN(c1ccc(F)cc1)S(=O)(=O)c1cc(Br)cc2c1N(C(=O)C1CC1)CC2"
category_label = "bin 2"

[[record]]
molecule = "Cc1cc(NCCc2ccccc2)nc(NC(=NCC(=O)OC(C)(C)C)Nc2ccc(C(F)(F)F)cc2)n1"
category_label = "bin 3"

[[record]]
molecule = "CCOc1ccc(-c2nonc2NC(=O)c2cccc(Cl)c2)cc1OCC"
category_label = "bin 3"

[[record]]
molecule = "CCCc1cc(OCCCOc2ccccc2)ccc1OCCCON1C(N)=NC(N)=NC1(C)C"
category_label = "bin 3"

[[record]]
molecule = "COc1ccc(CNC(=O)c2cnc3c(O)cccc3c2Nc2cccc(NC(=O)c3ccc(-c4ccccc4)cc3)c2)cc1"
category_label = "bin 2"

[[record]]
molecule = "COc1ccc(NC(=O)C2c3ccccc3C(=O)N(C3CCCC3)C2c2cccs2)cc1 (stereo not given)"
category_label = "bin 2"

[[record]]
molecule = "CCN(CCNS(C)(=O)=O)c1ccc(N)c(C)c1"
category_label = "bin 1"

[[record]]
molecule = "CC(C)N1CCN(C(CN2CCN(CCCOc3ccc4nonc4c3)CC2)c2ccc(F)cc2)CC1 (stereo not given)"
category_label = "bin 1"

[[record]]
molecule = "O=[N+]([O-])c1ccc2nc(Nc3ccc(Cl)c(Cl)c3)c(Nc3ccc(Cl)c(Cl)c3)nc2c1"
category_label = "bin 3"

[[record]]
molecule = "Cc1cc(Cl)ccc1NC(=O)Nc1ccc2nccc(N3CCN(C)CC3)c2c1"
category_label = "bin 2"

[[record]]
molecule = "CCc1nnc2sc(-c3cccc(NC(=O)c4ccc(OC)c(Cl)c4)c3)nn12"
category_label = "bin 1"

[[record]]
molecule = "CC(=O)N(Cc1nc(-c2cc(Cl)c(Cl)s2)cs1)c1c(C)cccc1C"
category_label = "bin 3"

[[record]]
molecule = "O=C(NC1CCC(CCN2Cc3ccc(Br)cc3C2)CC1)c1cccc(-c2cccnc2)c1 (stereo not given)"
category_label = "bin 2"

[[record]]
molecule = "O=C(Nc1ccc(Cn2ncc(N3CCCNCC3)c(Cl)c2=O)cc1)Nc1ccc(F)cc1[N+](=O)[O-]"
category_label = "bin 1"

[[record]]
molecule = "Cc1cccc(CNc2nc(C)cc(N[C@@H](Cc3ccccc3)C(=O)NCc3cccc(F)c3)n2)c1"
category_label = "bin 2"

[[record]]
molecule = "COc1ccc(Nc2cc(C)nc(NCc3ccc4c(c3)OCO4)n2)cc1"
category_label = "bin 2"

[[record]]
molecule = "COc1ccc2nccc(NN=Cc3cccc([N+](=O)[O-])c3)c2c1"
category_label = "bin 3"


Provenance of the data: PubChem BioAssay
